Measured values drawn from patent US8940742B2 for this set.

For PI3K β (Homo sapiens, UniProt P42338), measured pIC50 is reported for the entries below.
pIC50: −log10 of the molar value.

Sample answers from the record:
1. C[C@H](NC(=O)c1c(N)nn2cccnc12)c1cc2cccc(Cl)c2c(=O)n1C	> 7.00
2. C[C@H](NC(=O)c1c(N)nn2cccnc12)c1cc2cccc(Cl)c2c(=O)n1CCN(C)S(C)(=O)=O	6.00 to 7.00
3. COc1cc(-c2cccc3nc([C@H](C)NC(=O)c4c(N)nn5cccnc45)n(-c4ccccc4)c(=O)c23)ccn1	5.00 to 6.00
4. CC(C)n1c([C@H](C)NC(=O)c2c(N)nn3cccnc23)cc2cccc(Cl)c2c1=O	6.00 to 7.00
5. C[C@H](NC(=O)c1cncc2cccnc12)c1cc2cccc(Cl)c2c(=O)n1-c1ccc(F)cc1	5.00 to 6.00
6. CC(=O)N(C)Cc1cccc2cc([C@H](C)NC(=O)c3c(N)nn4cccnc34)n(-c3ccccc3)c(=O)c12	< 5.00
7. Cc1cnc(N)c(C(=O)N[C@@H](C)c2cc3cccc(Cl)c3c(=O)n2-c2ccccc2)n1	5.00 to 6.00
8. C[C@H](NC(=O)c1c(N)nn2cccnc12)c1cc2cccc(OC(F)(F)F)c2c(=O)n1-c1ccccc1	< 5.00
9. C=CCn1c([C@H](C)NC(=O)c2c(N)nn3cccnc23)cc2cccc(Cl)c2c1=O	> 7.00
10. COc1ccc(-c2cccc3cc([C@H](C)NC(=O)c4c(N)nn5cccnc45)n(-c4ccccc4)c(=O)c23)cn1	< 5.00

// query Quick one: pIC50 for CNc1cccc2cc([C@H](C)NC(=O)c3c(N)nn4cccnc34)n(-c3ccccc3)c(=O)c12 ?
// result < 5.00

// query Given COc1cc(-c2cccc3cc([C@H](C)NC(=O)c4c(N)nn5cccnc45)n(-c4cccc(F)c4)c(=O)c23)ccn1 , state its recorded pIC50.
// result < 5.00

// query Given the entry COc1ccc(-c2cnc(N)c(C(=O)N[C@@H](C)c3cc4cccc(Cl)c4c(=O)n3-c3ccccc3)n2)cc1F , report its measured pIC50.
// result < 5.00

// query Given CC(C)c1ccn2nc(N)c(C(=O)N[C@@H](C)c3cc4cccc(Cl)c4c(=O)n3-c3ccccc3)c2n1 , state its recorded pIC50.
// result 5.00 to 6.00

// query Given the compound C[C@H](NC(=O)c1c(N)nn2cccnc12)c1cc2cccc(N3CCN(C)CC3)c2c(=O)n1-c1ccccc1 , what is its reported pIC50?
// result < 5.00

----------
Overview of recorded pIC50 for various compounds
# Target of assay: Raw264.7 p110 γ (Mus musculus, UniProt Q9JHG7)
# Construct: reduction of phospho-AKT in stimulated RAW 264.7 cells; endogenous in cells
# Sequence (Q9JHG7 whole entry): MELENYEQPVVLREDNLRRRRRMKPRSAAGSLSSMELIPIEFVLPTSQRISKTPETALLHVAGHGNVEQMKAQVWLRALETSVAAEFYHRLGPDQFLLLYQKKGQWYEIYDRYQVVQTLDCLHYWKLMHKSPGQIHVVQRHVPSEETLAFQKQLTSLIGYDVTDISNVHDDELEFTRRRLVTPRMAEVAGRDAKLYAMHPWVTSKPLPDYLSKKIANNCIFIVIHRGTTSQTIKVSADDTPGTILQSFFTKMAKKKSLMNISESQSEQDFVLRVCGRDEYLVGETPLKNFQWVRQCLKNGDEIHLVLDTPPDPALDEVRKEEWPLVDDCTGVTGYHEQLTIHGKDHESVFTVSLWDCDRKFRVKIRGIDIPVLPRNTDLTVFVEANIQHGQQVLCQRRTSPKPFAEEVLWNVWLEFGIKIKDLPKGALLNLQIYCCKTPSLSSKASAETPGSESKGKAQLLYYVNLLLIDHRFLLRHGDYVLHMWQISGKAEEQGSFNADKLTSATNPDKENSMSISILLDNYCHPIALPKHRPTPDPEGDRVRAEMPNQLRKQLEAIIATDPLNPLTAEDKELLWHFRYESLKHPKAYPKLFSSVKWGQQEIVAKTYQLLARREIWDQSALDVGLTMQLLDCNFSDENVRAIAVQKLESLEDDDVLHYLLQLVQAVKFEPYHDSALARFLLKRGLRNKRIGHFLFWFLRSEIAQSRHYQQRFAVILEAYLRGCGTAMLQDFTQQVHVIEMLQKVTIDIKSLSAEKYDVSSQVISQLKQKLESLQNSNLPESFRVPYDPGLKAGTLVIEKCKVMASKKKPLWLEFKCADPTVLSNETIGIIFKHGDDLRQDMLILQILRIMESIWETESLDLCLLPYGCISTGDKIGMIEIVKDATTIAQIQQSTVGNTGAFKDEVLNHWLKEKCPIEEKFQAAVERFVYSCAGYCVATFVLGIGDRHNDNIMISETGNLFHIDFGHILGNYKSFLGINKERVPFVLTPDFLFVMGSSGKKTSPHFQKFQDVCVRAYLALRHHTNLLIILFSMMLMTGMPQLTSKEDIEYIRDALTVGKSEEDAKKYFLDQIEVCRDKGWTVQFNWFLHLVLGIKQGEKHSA
# Assay details: Raw264.7 p110 γ cellular assay (phospho-AKT)
# Measurement parameters: serum-starved RAW264.7 cells stimulated with C5a
pIC50: −log10 of the molar value.

// query Give its pIC50 value. Item: COc1ccc(-c2cnc(N)c(C(=O)N[C@@H](C)c3cc4cccc(Cl)c4c(=O)n3-c3ccccc3)n2)cc1OC
// result > 7.00

// query What pIC50 value was documented for this compound, C[C@H](NC(=O)c1c(N)nn2cccnc12)c1cc2ccccc2c(=O)n1-c1ccccc1 ?
// result > 7.00

// query Reported pIC50 for C[C@H](NC(=O)c1nc(-c2ccc(S(C)(=O)=O)cc2)cnc1N)c1cc2cccc(Cl)c2c(=O)n1-c1ccccc1 : what is it?
// result 6.00 to 7.00

// query // returns reported pIC50 for input C[C@H](NC(=O)c1c(N)nn2cccnc12)c1cc2cccc(Cl)c2c(=O)n1-c1cccc(F)c1
// result > 7.00

// query Suppose we examine the compound C[C@H](NC(=O)c1c(N)nn2cccnc12)c1cc2cccc(C#CCCNC(=O)[C@H]3CCC(=O)O3)c2c(=O)n1-c1ccccc1 ; what pIC50 value has been reported?
// result > 7.00

// query Param item = C[C@H](NC(=O)c1c(N)nn2cccnc12)c1cc2cccc(C3CC3)c2c(=O)n1-c1ccccc1 ; retrieve measured pIC50.
// result > 7.00

// query Can you share its pIC50? I mean this compound: CC(C)Oc1ccc(-c2cnc(N)c(C(=O)N[C@@H](C)c3cc4cccc(Cl)c4c(=O)n3-c3ccccc3)n2)cn1
// result 6.00 to 7.00
